The origin of these recorded values is ChEMBL document CHEMBL4043285.

Recorded IC50, one value per entry.
# test system: Aurora kinase B (Homo sapiens, UniProt Q96GD4)
# Sequence (Q96GD4 whole entry): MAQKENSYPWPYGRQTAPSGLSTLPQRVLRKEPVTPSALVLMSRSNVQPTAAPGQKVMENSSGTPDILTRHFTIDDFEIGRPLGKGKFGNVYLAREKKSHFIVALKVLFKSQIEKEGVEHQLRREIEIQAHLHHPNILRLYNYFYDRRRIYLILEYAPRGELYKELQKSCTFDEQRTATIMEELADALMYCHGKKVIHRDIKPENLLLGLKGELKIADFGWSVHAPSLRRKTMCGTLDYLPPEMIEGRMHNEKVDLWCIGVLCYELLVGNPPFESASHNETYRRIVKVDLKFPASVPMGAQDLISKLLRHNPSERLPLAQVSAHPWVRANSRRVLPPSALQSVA
# test details: Inhibition of human recombinant AurKB after 4 hrs by ADP-Glo assay
Return type: number; implicit unit nM.

Some molecules with recorded IC50:
[[record]]
input_smiles = "Cc1cc(Nc2cc(N3CCN(C)CC3)nc(Nc3ccc(NC(=O)C4CC4)cc3)n2)n[nH]1"
result_unit = "nM"
assay_result = 1340

[[record]]
input_smiles = "Cc1cc(Nc2cc(N3CCOCC3)nc(Nc3ccc(NC(=O)C4CC4)cc3)n2)n[nH]1"
result_unit = "nM"
assay_result = 853

[[record]]
input_smiles = "Cc1cc(Nc2cc(N3CCCCC3)nc(Nc3ccc(NC(=O)C4CC4)cc3)n2)n[nH]1"
result_unit = "nM"
assay_result = 959


Could you now look at the following molecule, please?
Field IC50 (Aurora kinase B (Homo sapiens, UniProt Q96GD4)), entry `Cc1cc(Nc2nc(Sc3ccc(NC(=O)C4CCCCC4)cc3)nc(N3CCN(C)CC3)n2)n[nH]1` : 229
